- Tested on: 521955-158-R2-J5-PDC complex spheroid viability;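 note: spheroids exposed to agents for one week before reading; 100% = DMSO vehicle control viability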
- experimental_details: Anticancer human tumor 521955-158-R2-J5-PDC patient-derived pancreatic carcinoma cell line growth inhibition [GQUAD]
- experimental_setup: second compound 10 µM; first compound 0.0316 µM; stronger effect = lower value
Please map values of viability, T/C to classes as shown: c1: < 60%; c2: ≥ 60% and < 90%; c3: ≥ 90%

Reference set (4 entries):
>  <compound>
O=C(c1cc(Cc2n[nH]c(=O)c3ccccc23)ccc1F)N1CCN(C(=O)C2CC2)CC1 + CN(C)c1ccc(Nc2c3ccc(NC(=O)CCN4CCCC4)cc3nc3cc(NC(=O)CCN4CCCC4)ccc23)cc1

>  <assigned_category>
c1

$$$$
>  <compound>
COc1cccc2c1C(=O)c1c(O)c3c(c(O)c1C2=O)CC(O)(C(=O)CO)CC3OC1CC(N)C(O)C(C)O1 (stereo not given) + Cc1[nH]c2ccc(F)cc2c1-c1nc2c3cccnc3c3ncccc3c2[nH]1

>  <assigned_category>
c3

$$$$
>  <compound>
CC[C@@]1(O)C(=O)OCc2c1cc1n(c2=O)Cc2cc3c(CN(C)C)c(O)ccc3nc2-1 + CN(C)c1ccc(Nc2c3ccc(NC(=O)CCN4CCCC4)cc3nc3cc(NC(=O)CCN4CCCC4)ccc23)cc1

>  <assigned_category>
c2

$$$$
>  <compound>
CC(C)(O)C1CCC(Nc2ccc3ncc(-c4cccc(C(F)(F)F)c4)n3n2)CC1 (stereo not given) + Cc1cnc(CNC(=O)c2c(=O)c3ccc(N4CCCN(C)CC4)nc3n3c2sc2ccccc23)cn1

>  <assigned_category>
c1

$$$$

Ask: Classify this compound: CC1COCCN1c1cc(C2(S(C)(=N)=O)CC2)nc(-c2ccnc3[nH]ccc23)n1 (stereo not given) + Cc1[nH]c2ccc(F)cc2c1-c1nc2c3cccnc3c3ncccc3c2[nH]1
Reply: c3

Ask: // query: O=C(c1cc(Cc2n[nH]c(=O)c3ccccc23)ccc1F)N1CCN(C(=O)C2CC2)CC1 + Cc1[nH]c2ccc(F)cc2c1-c1nc2c3cccnc3c3ncccc3c2[nH]1
Reply: c2

Ask: How about C#Cc1c(F)ccc2cc(O)cc(-c3ncc4c(N5CC6CCC(C5)N6)nc(OCC56CCCN5CC(F)C6)nc4c3F)c12 (stereo not given) + Cc1[nH]c2ccc(F)cc2c1-c1nc2c3cccnc3c3ncccc3c2[nH]1 ?
Reply: c1

Ask: Could you do the same for CC1COCCN1c1cc(C2(O)CC3CCC(C2)O3)c2cnn(-c3ccn[nH]3)c2n1 (stereo not given) + Cc1cnc(CNC(=O)c2c(=O)c3ccc(N4CCCN(C)CC4)nc3n3c2sc2ccccc23)cn1 , please?
Reply: c1

Ask: // next record Cc1cccc(N(C)C(=O)C2C(O)CCN2c2nc(C)cc(C(F)(F)F)c2C#N)c1 (stereo not given) + Cc1[nH]c2ccc(F)cc2c1-c1nc2c3cccnc3c3ncccc3c2[nH]1
Reply: c3
